System: Bacteroides caccae
Experimental protocol: growth AUC relative to DMSO control (median of replicates) (fraction); higher = more growth (less inhibition), active = hit call of the paper
Test parameters: 20 µM; 24 h
The label depends only on growth AUC: fulfilled if it is at least 1, not fulfilled if it is smaller.

Query: Could you verify whether the entry `COC(=O)c1c(Cl)nn(C)c1S(=O)(=O)NC(=O)Nc1nc(OC)cc(OC)n1` shows growth AUC of no less than 1?
Result: fulfilled

Query: Could you verify whether the entry `O=C(O)COc1ccc(Cl)c2cccnc12` shows growth AUC of no less than 1?
Result: fulfilled

Read the next record carefully.
Query: Could you verify whether the entry `CCCCOCCOC(=O)COc1nc(Cl)c(Cl)cc1Cl` shows growth AUC of no less than 1?
Result: not fulfilled

###

Tested on: Lactobacillus gasseri
Experimental protocol: growth AUC relative to DMSO control (median of replicates) (fraction); higher = more growth (less inhibition), active = hit call of the paper
Test parameters: 20 µM; 24 h
Measured growth AUC values are reported for all entries that follow.
Could you keep your reply to the number by itself?

Query: Return reported growth AUC. Input compound: `S=C([S-])NCCNC(=S)[S-].[Zn+2]`
Result: 0.966

Query: Return reported growth AUC. Input compound: COC1CCC2(CC1)NC(=O)C(c1cc(C)ccc1C)C2O (stereo not given)
Result: 0.99

Further cases:
Query: Return reported growth AUC. Input compound: `CCc1ccc(C(c2ccc(CC)cc2)C(Cl)Cl)cc1`
Result: 0.938

Query: Return reported growth AUC. Input compound: CC(C)C(O)(c1ccc(OC(F)(F)F)cc1)c1cncnc1 (stereo not given)
Result: 1.05

Query: Return reported growth AUC. Input compound: `CCCN(CCOc1c(Cl)cc(Cl)cc1Cl)C(N)=O`
Result: 0.946

Query: Return reported growth AUC. Input compound: `c1ccc(Nc2ccccc2)cc1`
Result: 1.1

Query: Return reported growth AUC. Input compound: Cc1cc(CC(C)CC(C)(C)C)n(O)c(=O)c1.NCCO (stereo not given)
Result: 0.971

Query: Return reported growth AUC. Input compound: `C=CCc1ccc(O)c(OC)c1`
Result: 0.95

###

Tested on: Bacteroides stercoris
Experimental protocol: growth AUC relative to DMSO control (median of replicates) (fraction); higher = more growth (less inhibition), active = hit call of the paper
Test parameters: 20 µM; 24 h
The label depends only on growth AUC: True if it is at least 1, False if it is smaller.

Consider the following illustrative entries.
Query: Could you verify whether the entry COC(=O)C(C)Oc1ccc(Cl)cc1Cl (stereo unspecified) shows growth AUC of no less than 1?
Result: False

Query: Could you verify whether the entry `NS(=O)(=O)[O-].[NH4+]` shows growth AUC of no less than 1?
Result: True

Query: Could you verify whether the entry `CC(C)(c1cc(Br)c(O)c(Br)c1)c1cc(Br)c(O)c(Br)c1` shows growth AUC of no less than 1?
Result: False

Further cases:
Query: Could you verify whether the entry `COc1c(I)cc(C#N)cc1I` shows growth AUC of no less than 1?
Result: True

###

Measured growth AUC values are reported for all entries that follow.
Test system: Bacteroides clarus
Experimental protocol: growth AUC relative to DMSO control (median of replicates) (fraction); higher = more growth (less inhibition), active = hit call of the paper
Test parameters: 20 µM; 24 h
Could you keep your reply to the number by itself?

Below, 3 compounds whose answers are already recorded.
Query: Return reported growth AUC. Input compound: `COc1ccc(Cl)c(Cl)c1Cl`
Result: 1.01

Query: Return reported growth AUC. Input compound: `COc1c(Cl)ccc(Cl)c1C(=O)O`
Result: 0.975

Query: Return reported growth AUC. Input compound: CC(C)(NC(=O)C(Br)C(C)(C)C)c1ccccc1 (stereo not drawn)
Result: 0.924

Now consider the entry below.
Query: Return reported growth AUC. Input compound: `CCOC(=O)Nc1cccc(OC(=O)Nc2cccc(C)c2)c1`
Result: 0.948
